Each recorded value in this set is attributed to PubChem BioAssay AID1730.

method summary: Counterscreen Assay for Inhibitors of the ERK Signaling Pathway using a Homogeneous Screening Assay
condition set: AlphaScreen bead counterscreen in cell lysate, 5 h; series mostly up to 45.6 µM
Inconclusive results are not listed. Calls of active or inactive are those of the source. Calls come from the whole dose curve; as a rule, active = well fitted inhibition curve with a large enough effect; inconclusive = small, poorly fitted or top-dose-only effect; inactive = no such curve, though single readings can be large or run the other way.
Bench note: report the call from active, inactive

Reference set, count: 8
1. COc1ccc(CC(=O)Nc2cccc(-c3nnc(-c4cccc(C)c4)o3)c2)cc1OC: inactive
2. CC(/C=C/c1ccccc1)=N\Nc1ccccc1[N+](=O)[O-]: active
3. CN(C)c1ccc(Nc2c3c4c(cccc4n(C)c2=O)C(=O)c2ccccc2-3)cc1: active
4. Cc1nc2ccccc2nc(=O)c1NNc1ccccc1: inactive
5. CNc1cccc2c1C(=O)c1ccccc1C2=O: active
6. COC(=O)Cc1c(C)c2ccc(OC(=O)c3ccco3)cc2oc1=O: inactive
7. Cc1noc(NS(=O)(=O)c2ccc(NC(=O)COc3ccc(Cl)cc3Cl)cc2)c1C: inactive
8. COc1cc(C(=O)Nc2nc(-c3cccs3)cs2)cc(OC)c1OC: inactive

Request: Please let me know the test result on file for `Cn1c(=O)cc(Nc2ccccc2)c2c(=O)n(-c3ccccc3)c(=O)n(-c3ccccc3)c21` .
Result: inactive

Request: Please let me know the test result on file for `Cc1nc2ccccc2c2oc(C(=O)N3CCc4ccccc4C3)cc12` .
Result: inactive

Request: Please let me know the test result on file for `Cc1ccc(Nc2ncnc3sc(C)c(C)c23)cc1C` .
Result: inactive

Request: Please let me know the test result on file for `C=C[C@@]1(C)CC(=O)[C@@]2(O)[C@@]3(C)[C@@H](O)CCC(C)(C)[C@@H]3[C@H](O)[C@H](OC(C)=O)[C@@]2(C)O1` .
Result: inactive

Request: Please let me know the test result on file for `c1ccc(Nc2ncnc3sc4c(c23)CCC4)cc1` .
Result: inactive

Request: Please let me know the test result on file for `CCOC(=O)c1ccc(NC(=O)c2ccc(C)c(S(=O)(=O)N3CCOCC3)c2)cc1` .
Result: inactive

Request: Please let me know the test result on file for `CC(C)Cn1c(N)c(C(=O)CSc2ccc3c(c2)OCCO3)c(=O)n(C)c1=O` .
Result: inactive
